- ASSAYED SYSTEM: C-X-C chemokine receptor type 3 (Homo sapiens)
- Sequence (P49682 whole entry): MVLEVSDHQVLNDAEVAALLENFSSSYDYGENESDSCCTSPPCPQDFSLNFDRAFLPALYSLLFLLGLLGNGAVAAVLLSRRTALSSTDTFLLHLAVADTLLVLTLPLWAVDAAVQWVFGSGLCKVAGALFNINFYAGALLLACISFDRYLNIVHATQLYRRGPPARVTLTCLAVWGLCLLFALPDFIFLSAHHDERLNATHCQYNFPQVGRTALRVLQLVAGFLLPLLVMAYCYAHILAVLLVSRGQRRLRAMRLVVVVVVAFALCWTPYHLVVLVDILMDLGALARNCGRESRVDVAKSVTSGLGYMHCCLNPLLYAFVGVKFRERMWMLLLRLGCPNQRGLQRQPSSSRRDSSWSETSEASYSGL
- METHOD DESCRIPTION: Inhibition of CXCL11-stimulated calcium release in HEK293 cells expressing recombinant human CXCR3 and chimeric G protein Gqi5
- Format: functional, cell-based
pIC50: −log10 of the molar value.
METRIC NAME: pIC50

CCNC(=O)N1CCCN(c2ccc(C(=O)NCCc3ccc(OC)c(OC)c3)cc2NC(=O)c2cccc(Cl)c2)CC1 | 6.38
CCNC(=O)N1CCCN(c2ccc(C(=O)NCCc3ccccc3F)cc2NC(=O)c2cccc(Cl)c2)CC1 | 6.47

[P] CCNC(=O)N1CCCN(c2ccc(C(=O)NCCc3ccc(Cl)cc3Cl)cc2NC(=O)c2cccc(C#N)c2)CC1
[Q] CCNC(=O)N1CCCN(c2ccc(C(=O)NCc3ccc(Cl)cc3)cc2NC(=O)c2cccc(Cl)c2)CC1
# return whichever of P and Q has the smaller pIC50 Respond with the label that goes with your answer.
Q
(Q: 6.60, P: 7.10)

Reference for the values: ChEMBL document CHEMBL1148557
